Assay: Lipophilicity, log D of the compound at pH 7.4 by HPLC method
Format: physicochemical
Details: buffer, read-out: logD
Classify on logD using low interval = under 3, middle interval = from 3 up to 7, high interval = 7 and over

Assign a category based on measured logD for N#Cc1c(=O)c2sc3cc(F)ccc3c2n2c1[nH]c1ccccc12 and give only the class name. middle interval

Here is the next compound: CN(C)CCCNc1c(C#N)c2nc3ccccc3n2c2c1sc1ccccc12 middle interval

Here is the next compound: N#Cc1cc2sc3cc(F)ccc3c2n2c1nc1ccccc12 middle interval

Here is the next compound: CC(C)CNc1ccc2c(c1)sc1cc(C#N)c3nc4ccccc4n3c12 high interval

Here is the next compound: N#Cc1c(N2CCCCC2)c2sc3ccccc3c2n2c1nc1ccccc12 high interval

Here is the next compound: CC(C)CNc1ccc2cc(C#N)c3nc4ccccc4n3c2c1 middle interval

Here is the next compound: N#Cc1c(N2CCNCC2)c2sc3cc(N4CCNCC4)ccc3c2n2c1nc1ccccc12 low interval

Here is the next compound: N#Cc1cc2sc3cc(N4CCCCC4)ccc3c2n2c1nc1ccccc12 high interval

Here is the next compound: N#Cc1c(N2CCNCC2)c2sc3ccccc3c2n2c1nc1ccccc12 middle interval

Here is the next compound: N#Cc1cc2sc3cc(N4CCNCC4)ccc3c2n2c1nc1ccccc12 low interval

Here is the next compound: N#Cc1c(Cl)c2ccccc2n2c1nc1ccccc12 middle interval

Here is the next compound: N#Cc1c(N2CCNCC2)c2ccc(N3CCNCC3)cc2n2c1nc1ccccc12 low interval

Here is the next compound: N#Cc1c(Cl)c2sc3cc(F)ccc3c2n2c1nc1ccccc12 middle interval

Here is the next compound: N#Cc1cc2ccc(F)cc2n2c1nc1ccccc12 middle interval

Here is the next compound: N#CC1C(=O)c2ccccc2-n2c1nc1ccccc12 (stereo not drawn) low interval

Here is the next compound: CC(C)CNc1c(C#N)c2nc3ccccc3n2c2ccccc12 middle interval

Here is the next compound: CN(C)CCCNc1ccc2cc(C#N)c3nc4ccccc4n3c2c1 low interval

Here is the next compound: N#Cc1c(Cl)c2sc3ccccc3c2n2c1nc1ccccc12 high interval
